Measured values drawn from patent US20180169261A1 for this set.

target: T1, cynomolgus CD123 (cynomolgus); experiment: saturation binding of AlexaFluor-488 labeled mAb, flow cytometry on HEK293F cells expressing cyno CD123; apparent Kd
T1 construct: whole, on cells; Expressed on transfected HEK-293F cells; also called cyno CD123
experimentalEndpoint: Kd (nM)
# number only, unit nM dropped from output

So what does the record say about Kd for Chimeric 7G3 (antibody, V domains shown) VH: EVQLQQSGPELVKPGASVKMSCKASGYTFTDYYMKWVKQSHGKSLEWIGDIIPSNGATFYNQKFKGKATLTVDRSSSTAYMHLNSLTSEDSAVYYCTRSHLLRASWFAYWGQGTLVTVSA VL: DFVMTQSPSSLTVTAGEKVTMSCKSSQSLLNSGNQKNYLTWYLQKPGQPPKLLIYWASTRESGVPDRFTGSGSGTDFTLTISSVQAEDLAVYYCQNDYSYPYTFGGGTKLEIKR ?
4.7

So what does the record say about Kd for murine 7G3 antibody (antibody, V domains shown, Murine monoclonal antibody; also called m7G3) VH: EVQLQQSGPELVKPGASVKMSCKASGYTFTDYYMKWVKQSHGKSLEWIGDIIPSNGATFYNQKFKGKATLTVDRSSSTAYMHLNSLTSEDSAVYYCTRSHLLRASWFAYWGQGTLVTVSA VL: DFVMTQSPSSLTVTAGEKVTMSCKSSQSLLNSGNQKNYLTWYLQKPGQPPKLLIYWASTRESGVPDRFTGSGSGTDFTLTISSVQAEDLAVYYCQNDYSYPYTFGGGTKLEIKR ?
4.6

So what does the record say about Kd for h7G3, G1 (antibody, V domains shown, also called humanized 7G3, IgG1) VH: QVQLVQSGAEVKKPGASVKMSCKASGYTFTDYYMKWVKQAPGQGLEWIGDIIPSNGATFYNQKFKGKATLTVDRSISTAYMHLNRLRSDDTAVYYCTRSHLLRASWFAYWGQGTLVTVSS VL: DFVMTQSPDSLAVSLGERATINCKSSQSLLNSGNQKNYLTWYLQKPGQPPKLLIYWASTRESGVPDRFSGSGSGTDFTLTISSLQAEDVAVYYCQNDYSYPYTFGQGTKLEIKR ?
5.3

So what does the record say about Kd for h7G3EC (antibody, human IgG1, kappa, V domains shown, EC means cysteine at position 239 (EU index) of the IgG1 heavy chain; Unconjugated antibody; also called humanized 7G3 with S239C) VH: QVQLVQSGAEVKKPGASVKMSCKASGYTFTDYYMKWVKQAPGQGLEWIGDIIPSNGATFYNQKFKGKATLTVDRSISTAYMHLNRLRSDDTAVYYCTRSHLLRASWFAYWGQGTLVTVSS VL: DFVMTQSPDSLAVSLGERATINCKSSQSLLNSGNQKNYLTWYLQKPGQPPKLLIYWASTRESGVPDRFSGSGSGTDFTLTISSLQAEDVAVYYCQNDYSYPYTFGQGTKLEIKR ?
6.6
